Reference source: patent US20240217982A1

Form field: KRASG12D Nucleotide Exchange Assay (IC50, µM) (one value per entry).
Target: KRAS G12D (Homo sapiens (Human), UniProt P01116, G12D)
Sequence (P01116-2 other isoform, or with tags, fused parts or gaps G12D): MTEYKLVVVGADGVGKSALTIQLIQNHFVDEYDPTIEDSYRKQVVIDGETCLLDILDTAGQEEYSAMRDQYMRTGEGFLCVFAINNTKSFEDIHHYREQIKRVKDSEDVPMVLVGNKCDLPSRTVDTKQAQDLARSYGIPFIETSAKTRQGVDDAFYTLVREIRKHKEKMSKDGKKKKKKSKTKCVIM
Assay: KRAS G12D Nucleotide Exchange Assay (HTRF)
Type: biochemical
Conditions: recombinant GDP-loaded KRAS G12D (20 nM), BIODIPY-labeled GDP (400 nM), recombinant SOS (10 nM), HTRF signal
Parameter measured: KRASG12D Nucleotide Exchange Assay (IC50, µM) (µM)

INSERT INTO measurements (molecule, unit_of_measure, val) VALUES
  ('CO[C@@H]1C[C@@H](COc2nc(N3CC[C@H]4CC[C@@H](C3)N4)c3cc(Cl)c(-c4nc(N)cc(C)c4C(F)(F)F)c(F)c3n2)N(C)C1', 'µM', 0.010),
  ('Oc1cc(-c2ccc3c(N4CC[C@H]5CC[C@@H](C4)N5)nc(OC[C@@]45CCCN4C[C@H](F)C5)nc3c2F)c2c(F)cccc2c1', 'µM', 0.01),
  ('Cc1cc(N)nc(-c2ccc3c(N4CC[C@H]5CC[C@@H](C4)N5)nc(OC[C@]45CCCN4C[C@H](F)C5)nc3c2F)c1C(F)(F)F', 'µM', 0.33),
  ('CCc1cccc2cc(O)cc(-c3ccc4c(N5CC[C@H]6CC[C@@H](C5)N6)nc(OC[C@@]56CCCN5C[C@H](F)C6)nc4c3F)c12', 'µM', 0.03),
  ('Oc1cc(-c2c(Cl)cc3c(N4CC[C@H]5CC[C@@H](C4)N5)nc(OC[C@]45CCCN4C[C@@H](F)C5)nc3c2F)c2ccccc2c1 (single isomer, unassigned) [Example 8-10]', 'µM', 0.50),
  ('CCc1cccc2cc(O)cc(-c3c(Cl)cc4c(N5CC[C@H]6CC[C@@H](C5)N6)nc(OC[C@@]56CCCN5C[C@H](F)C6)nc4c3F)c12 (single isomer, unassigned) [Example 8-1]', 'µM', 0.04),
  ('Cc1cc(N)nc(-c2ccc3c(N4CC[C@H]5CC[C@@H](C4)N5)nc(OC[C@@]45CCCN4C[C@H](F)C5)nc3c2F)c1C(F)(F)F', 'µM', 0.03),
  ('Oc1cc(-c2c(Cl)cc3c(N4CC[C@H]5CC[C@@H](C4)N5)nc(OC[C@]45CCCN4C[C@@H](F)C5)nc3c2F)c2ccccc2c1 (single isomer, unassigned) [Example 8-9]', 'µM', 0.005),
  ('Cc1cc(N)nc(-c2c(Cl)cc3c(N4CC[C@H]5CC[C@@H](C4)N5)nc(OCC4(CN5CCCC(F)C5)CC4)nc3c2F)c1C(F)(F)F (some centres unmarked) [Example 10-9]', 'µM', 0.41),
  ('Nc1cc2cccc(F)c2c(-c2ccc3c(N4CC[C@H]5CC[C@@H](C4)N5)nc(OC[C@@]45CCCN4C[C@H](F)C5)nc3c2F)n1', 'µM', 2.2);
